The origin of these recorded values is ChEMBL document CHEMBL1275471.

# System: Escherichia coli
# testDetails: Antimicrobial activity against azide-resistant Escherichia coli J53 by CLSI method
# Type: functional
experimentalReadout: MIC (µg/mL)
Write it as a number; the unit µg/mL goes unstated.

See these solved cases before continuing.
{"columns": ["compoundStructure", "testTarget", "valueObserved"],
 "data": [
  ["CCN1CCN(c2cc3c(cc2F)c(=O)c(C(=O)O)cn3C2CC2)CC1", "Escherichia coli", 0.01],
  ["CCn1cc(C(=O)O)c(=O)c2ccc(C)nc21", "Escherichia coli", 4],
  ["CCn1cc(C(=O)O)c(=O)c2cc(F)c(N3CCNCC3)cc21", "Escherichia coli", 0.12]
]}

Here's the next entry for you.
Lab entry: Escherichia coli assay, molecule C[C@@H]1CN(c2c(F)c(N)c3c(=O)c(C(=O)O)cn(C4CC4)c3c2F)C[C@H](C)N1 , MIC = 0.01
